- TARGET SYSTEM: SARS-CoV-2 spike receptor-binding domain, Omicron BA.1 variant (amino acids 331-529), biotinylated (SARS-CoV-2, Omicron BA.1, G339D | S371L | S373P | S375F | K417N | N440K | G446S | S477N | T478K | E484A | …, biotin (RBD expression vector co-expressed with BirA-Flag, 100 μM biotin added))
- MEASUREMENT NOTES: BLI
- EXPERIMENTAL SETUP: both partners purified
RECORDED METRIC: pKd
Bear in mind: pKd is minus log10 of a mol/L concentration; give just that figure.

In the examples that follow, each entry is paired with its recorded pKd.
INSERT INTO results (binder, result_number) VALUES
  ('NIV-10 Fab (Fab, V domains shown) VH: EVQLVESGGGLVQPGGSLRLSCAASGFTFYSYWMTWVRQAPGKGLEWVANIKHDESESHYVDSVRGRFTISRDNAKNSVYLQMKGLRAEDTAVYYCARDGGYNILTAYYHAPSYWGQGTLVTVSS VL: QSALTQPASVSGSPGQSITISCTGTSSDVGGYNFVSWYRQYPGKAPQLMIYDVSRRPSGDSDRFSGSKSGNTASLTISGLQAEDEAEYHCSSYTGRSPYVVFGGGTKVTVL', 7.02),
  ('NIV-13 Fab (Fab, V domains shown) VH: EVQLLESGGGLVQPGGSLRLSCAASGFTFSRYALSWVRQAPGKGLEWVSAISGAAITTYYADSVKGRFTISRDDSRNTLFMQMDSLRAEDTAVYYCAKGDYYDSSGYLAEYFPHWGQGTLVTVSS VL: SYELTQPPSVSVSPGQTARITCFADALPKQHAYWYQQKAGQAPVLVIFKDTERPSGIPKRFSGSRSGATVTLTISGVQAEDEADYYCQSTDISGVLFGGGTKLTVL', 9.10),
  ('NIV-8 Fab (Fab, V domains shown) VH: EVQLVESGGGVVQPGRSLRLSCAASGFKFSKFAMHWVRQAPGKGPEWVAVISYDGNQYHSADSVKGRFTISRDNSFNTLYLQMNSLGPEDTAVYYCARDGPDTSGYYANIYFDFWGQGTLVTVSS VL: QSVLTQPPSVSGAPGQRVTISCTGSSSNIGAGYDVHWYQQLPGRAPKLLIFDNNNRPSGVPDRFSGSKSGTSASLAITGLQTEDEAYYYCQSYDNSLILAVFGGGTKVTVL', 7.61);

Moving on to another binder below.
q: Return reported pKd. Input binder: NIV-11 Fab (Fab, V domains shown) VH: QLVQSGPEVKKPGTSVKVSCKASGFTFYYSAVQWVRQARGQRLEWLGWMAVGSGKANYAQKFQERLTLTRDMSTSTAYMELSSLRSEDTAVYYCAAPNCTGGSCYDGFNLWGQGTVVTVSS VL: EIVLTQSPGTLSLSPGDRAILSCRASQTVNSNYLAWYQQKPGQAPRLLIYGTSSRATGIPDRFSGSGSGTDFTLTISRLEPEDFAVYYCQQYGSSPWLFGQGTKVEIK
a: 8.04
